Data origin: patent US8450300B2

Assay: Dose escalation study, single/multiple dose and loading dose regimens: pharmacokinetics
Type: in vivo, human
Details: human, in vivo, 2200 mg, Period 1 Day 1, single dose 2200 mg
ASSAY ENDPOINT: Vd/F (L)
Give bare numbers, in L.

Input: // lookup Vd/F for CC(=O)O[C@H]1C[C@@]2(C)[C@@H](C[C@@H](O)[C@H]3[C@@]4(C)CC[C@@H](O)[C@@H](C)[C@@H]4CC[C@@]32C)/C1=C(\CCC=C(C)C)C(=O)O [CEM-102, Sodium fusidate]
Output: 19.2

----------
Experiment: Dose escalation study, single/multiple dose and loading dose regimens: pharmacokinetics
Type: in vivo, human
Conditions: human, in vivo, 550 mg, Period 2 Day 6, 550 mg BID
ASSAY ENDPOINT: Vd/F (L)
One number for each entry, in L.

Input: // lookup Vd/F for CC(=O)O[C@H]1C[C@@]2(C)[C@@H](C[C@@H](O)[C@H]3[C@@]4(C)CC[C@@H](O)[C@@H](C)[C@@H]4CC[C@@]32C)/C1=C(\CCC=C(C)C)C(=O)O [CEM-102, Sodium fusidate]
Output: 9.88

----------
Experiment: Dose escalation study, single/multiple dose and loading dose regimens: pharmacokinetics
Type: in vivo, human
Settings: human, in vivo, 1650 mg, Period 2 Day 6, 1650 mg BID; read-out: AUC(0-12), mean
ASSAY ENDPOINT: AUC(0-t) (µg·h/mL)
Give bare numbers, in µg·h/mL.

Input: // lookup AUC(0-t) for CC(=O)O[C@H]1C[C@@]2(C)[C@@H](C[C@@H](O)[C@H]3[C@@]4(C)CC[C@@H](O)[C@@H](C)[C@@H]4CC[C@@]32C)/C1=C(\CCC=C(C)C)C(=O)O [CEM-102, Sodium fusidate]
Output: 3290

----------
Test: Dose escalation study, single/multiple dose and loading dose regimens: pharmacokinetics
Type: in vivo, human
Conditions: human, in vivo, 550 mg, Period 2 Day 6, 550 mg BID, 11 doses
Protocol: The pharmacokinetics (PK), safety, and tolerability of single and multiple doses of CEM-102 (sodium fusidate) were evaluated in a single-center, Phase 1, double-blind, randomized, placebo-controlled, dose-escalating study in 32 healthy adult subjects enrolled in 4 dosage groups (550, 1100, 1650, and 2200 mg). In each cohort, six subjects were to receive CEM-102 and two were to receive placebo in a single dose (Period 1) and then multiple doses BID for a total of 11 doses over 5.5 days (Period 2). […]
ASSAY ENDPOINT: Cmax

Input: // lookup Cmax for CC(=O)O[C@H]1C[C@@]2(C)[C@@H](C[C@@H](O)[C@H]3[C@@]4(C)CC[C@@H](O)[C@@H](C)[C@@H]4CC[C@@]32C)/C1=C(\CCC=C(C)C)C(=O)O [CEM-102, Sodium fusidate]
Output: 130 µg/mL

----------
Assay: Single oral dose bioavailability study, fed/fasted crossover, plasma fusidic acid
Details: human, in vivo, 500 mg, 500 mg single oral dose, fed, read-out: AUCinf, geometric mean (CV %)
ASSAY ENDPOINT: AUC(0-inf) (µg·h/mL)
Give bare numbers, in µg·h/mL.

Input: // lookup AUC(0-inf) for CC(=O)O[C@H]1C[C@@]2(C)[C@@H](C[C@@H](O)[C@H]3[C@@]4(C)CC[C@@H](O)[C@@H](C)[C@@H]4CC[C@@]32C)/C1=C(\CCC=C(C)C)C(=O)O [CEM-102, Sodium fusidate]
Output: 285

----------
Assay: Dose escalation study, single/multiple dose and loading dose regimens: pharmacokinetics
Assay type: in vivo, human
Settings: human, in vivo, 1650 mg, Period 1 Day 1, single dose 1650 mg; read-out: AUC(0-24), mean
ASSAY ENDPOINT: AUC(0-t)
Include the unit right after the number.

Input: // lookup AUC(0-t) for CC(=O)O[C@H]1C[C@@]2(C)[C@@H](C[C@@H](O)[C@H]3[C@@]4(C)CC[C@@H](O)[C@@H](C)[C@@H]4CC[C@@]32C)/C1=C(\CCC=C(C)C)C(=O)O [CEM-102, Sodium fusidate]
Output: 1260 µg·h/mL

----------
System: WT isolates
Test: Synergy by the checkerboard method
Format: cell-based
Settings: FA/co-drug combination, count
Assign Indifferent to each entry below.
Numbers only.

CN[C@H](CC(C)C)C(=O)N[C@H]1C(=O)N[C@@H](CC(N)=O)C(=O)N[C@H]2C(=O)N[C@H]3C(=O)N[C@H](C(=O)N[C@H](C(=O)O)c4cc(O)cc(O)c4-c4cc3ccc4O)[C@H](O)c3ccc(c(Cl)c3)Oc3cc2cc(c3O[C@@H]2O[C@H](CO)[C@@H](O)[C@H](O)[C@H]2O[C@H]2C[C@](C)(N)[C@H](O)[C@H](C)O2)Oc2ccc(cc2Cl)[C@H]1O    4

For each of the items listed, what is its Indifferent?
1. Cc1onc(-c2ccccc2)c1C(=O)N[C@@H]1C(=O)N2[C@@H]1SC(C)(C)[C@@H]2C(=O)O
2. CO[C@H]1/C=C/O[C@@]2(C)Oc3c(C)c(O)c4c(O)c(c(/C=N/N5CCN(C)CC5)c(O)c4c3C2=O)NC(=O)/C(C)=C\C=C\[C@H](C)[C@H](O)[C@@H](C)[C@@H](O)[C@@H](C)[C@H](OC(C)=O)[C@@H]1C
3. C[C@H]1COc2c(N3CCN(C)CC3)c(F)cc3c(=O)c(C(=O)O)cn1c23

Output:
1. 3
2. 0
3. 4

----------
Experiment: Dose escalation study, single/multiple dose and loading dose regimens: pharmacokinetics
Format: in vivo, human
Conditions: human, in vivo, 2200 mg, Period 1 Day 1, single dose 2200 mg
ASSAY ENDPOINT: Cmax (µg/mL)
Answers are plain numbers, in µg/mL.

Input: // lookup Cmax for CC(=O)O[C@H]1C[C@@]2(C)[C@@H](C[C@@H](O)[C@H]3[C@@]4(C)CC[C@@H](O)[C@@H](C)[C@@H]4CC[C@@]32C)/C1=C(\CCC=C(C)C)C(=O)O [CEM-102, Sodium fusidate]
Output: 128

----------
Assay: Single oral dose bioavailability study, fed/fasted crossover, plasma fusidic acid
Details: human, in vivo, 500 mg, 500 mg single oral dose, fasting, read-out: total exposure (AUC)
ASSAY ENDPOINT: AUC

Input: // lookup AUC for CC(=O)O[C@H]1C[C@@]2(C)[C@@H](C[C@@H](O)[C@H]3[C@@]4(C)CC[C@@H](O)[C@@H](C)[C@@H]4CC[C@@]32C)/C1=C(\CCC=C(C)C)C(=O)O [CEM-102, Sodium fusidate]
Output: ~318 µg·h/mL

----------
Assay: Single oral dose bioavailability study, fed/fasted crossover, plasma fusidic acid
Settings: human, in vivo, 500 mg, 500 mg single oral dose, fasting, read-out: t1/2, arithmetic mean ± SD (converted)
ASSAY ENDPOINT: half-life (h)
Answers are plain numbers, in h.

Input: // lookup half-life for CC(=O)O[C@H]1C[C@@]2(C)[C@@H](C[C@@H](O)[C@H]3[C@@]4(C)CC[C@@H](O)[C@@H](C)[C@@H]4CC[C@@]32C)/C1=C(\CCC=C(C)C)C(=O)O [CEM-102, Sodium fusidate]
Output: 11.8

----------
Assay: Dose escalation study, single/multiple dose and loading dose regimens: pharmacokinetics
Assay type: in vivo, human
Settings: human, in vivo; Period 1 Day 1, single dose 2200 mg
ASSAY ENDPOINT: AUC(0-inf) (µg·h/mL)
Numbers only, in µg·h/mL.

Input: // lookup AUC(0-inf) for CC(=O)O[C@H]1C[C@@]2(C)[C@@H](C[C@@H](O)[C@H]3[C@@]4(C)CC[C@@H](O)[C@@H](C)[C@@H]4CC[C@@]32C)/C1=C(\CCC=C(C)C)C(=O)O [CEM-102, Sodium fusidate]
Output: 2650

----------
Experiment: Dose escalation study, single/multiple dose and loading dose regimens: pharmacokinetics
Type: in vivo, human
Details: human, in vivo, 1100 mg, Period 2 Day 6, 1100 mg BID; read-out: T1/2, harmonic mean (converted)
ASSAY ENDPOINT: half-life

Input: // lookup half-life for CC(=O)O[C@H]1C[C@@]2(C)[C@@H](C[C@@H](O)[C@H]3[C@@]4(C)CC[C@@H](O)[C@@H](C)[C@@H]4CC[C@@]32C)/C1=C(\CCC=C(C)C)C(=O)O [CEM-102, Sodium fusidate]
Output: 17.1 h

----------
Assay: Multi-dose pharmacokinetics 500 mg TID, 13 doses
Assay type: in vivo, human
Conditions: human, in vivo, 500 mg, 500 mg TID, Day 5 (13 doses); read-out: AUC0-tss, geometric mean
ASSAY ENDPOINT: AUC

Input: // lookup AUC for CC(=O)O[C@H]1C[C@@]2(C)[C@@H](C[C@@H](O)[C@H]3[C@@]4(C)CC[C@@H](O)[C@@H](C)[C@@H]4CC[C@@]32C)/C1=C(\CCC=C(C)C)C(=O)O [CEM-102, Sodium fusidate]
Output: 3560 µg·h/mL
